From: patent US8551937B2

Test: CNP immunoreactivity concentration in plasma, half-life after intravenous administration (Example 7)
Details: male, SD, rat, in vivo, 10 nmol/kg
TEST_READOUT: half-life

Please give the documented half-life of `CC[C@H](C)[C@@H]1NC(=O)[C@H](CCCNC(=N)N)NC(=O)[C@H](CC(=O)O)NC(=O)[C@H](CC(C)C)NC(=O)[C@H](CCCCN)NC(=O)[C@H](CC(C)C)NC(=O)CNC(=O)[C@H](Cc2ccccc2)NC(=O)[C@@H](NC(=O)CNC(=O)[C@H](CCCCN)NC(=O)[C@H](CO)NC(=O)[C@H](CC(C)C)NC(=O)CN)CSSC[C@@H](C(=O)O)NC(=O)CNC(=O)[C@H](CC(C)C)NC(=O)CNC(=O)[C@H](CO)NC(=O)[C@H](CCSC)NC(=O)[C@H](CO)NC(=O)CNC1=O`
4.34 min

###

Target: neutral endopeptidase (NEP) (Homo sapiens, UniProt P08473)
Construct: purchased R&D Systems, Inc., U.S.A
Sequence (P08473 whole entry): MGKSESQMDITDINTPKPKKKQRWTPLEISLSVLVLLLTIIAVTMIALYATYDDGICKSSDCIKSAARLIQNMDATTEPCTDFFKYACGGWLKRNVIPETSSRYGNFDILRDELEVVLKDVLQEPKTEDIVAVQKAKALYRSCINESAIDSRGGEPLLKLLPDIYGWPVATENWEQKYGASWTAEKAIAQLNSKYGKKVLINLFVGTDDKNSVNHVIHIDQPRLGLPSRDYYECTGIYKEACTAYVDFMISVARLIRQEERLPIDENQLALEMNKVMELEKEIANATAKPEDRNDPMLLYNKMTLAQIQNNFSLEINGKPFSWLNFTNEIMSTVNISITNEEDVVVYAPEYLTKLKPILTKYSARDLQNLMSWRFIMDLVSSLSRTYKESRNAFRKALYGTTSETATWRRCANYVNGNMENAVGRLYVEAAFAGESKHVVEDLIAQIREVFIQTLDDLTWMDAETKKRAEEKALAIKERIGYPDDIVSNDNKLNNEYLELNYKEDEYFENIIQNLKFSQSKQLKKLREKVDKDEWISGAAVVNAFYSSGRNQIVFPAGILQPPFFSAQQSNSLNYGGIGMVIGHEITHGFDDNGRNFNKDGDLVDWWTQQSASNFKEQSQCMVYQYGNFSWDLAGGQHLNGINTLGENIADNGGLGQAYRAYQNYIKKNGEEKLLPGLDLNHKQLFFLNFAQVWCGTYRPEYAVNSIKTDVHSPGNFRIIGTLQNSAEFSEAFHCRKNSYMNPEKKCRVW
Experiment: Resistance to peptidase: stability to hNEP (HPLC residual rate)
Format: in vitro ADME
Conditions: human, isolated enzyme neprilysin; hNEP, 37° C., 1 hour, 0.5 μg/mL, 20 mM MES pH 6.5, mean of N = 2; read-out: Residual Rate
TEST_READOUT: remaining at 1 h, 0.5 μg/mL

Dear colleague, please send me the reported remaining at 1 h, 0.5 μg/mL for `CC[C@H](C)[C@@H]1NC(=O)[C@H](CCCNC(=N)N)NC(=O)[C@H](CC(=O)O)NC(=O)[C@H](CC(C)C)NC(=O)[C@H](CCCCN)NC(=O)[C@H](CC(C)C)NC(=O)CNC(=O)[C@H](Cc2ccccc2)NC(=O)[C@@H](NC(=O)CNC(=O)[C@H](CCCCN)NC(=O)[C@H](CO)NC(=O)[C@H](CC(C)C)NC(=O)CN)CSSC[C@@H](C(=O)O)NC(=O)CNC(=O)[C@H](CC(C)C)NC(=O)CNC(=O)[C@H](CO)NC(=O)[C@H](CCSC)NC(=O)[C@H](CO)NC(=O)CNC1=O` when you can.
16.7%

###

Test: CNP immunoreactivity concentration in plasma after administration to rats (competitive RIA), pharmacokinetic parameters (Example 2)
Format: in vivo, rat
Conditions: rat, plasma; intravenous, 0.1 mg/kg, male rats, N = 3, mean ± SD; extrapolated value
TEST_READOUT: C0 (ng/mL)
# unit: ng/mL | format: bare number

Find the measured C0 of `CC[C@H](C)[C@@H]1NC(=O)[C@H](CCCNC(=N)N)NC(=O)[C@H](CC(=O)O)NC(=O)[C@H](CC(C)C)NC(=O)[C@H](CCCCN)NC(=O)[C@H](CC(C)C)NC(=O)CNC(=O)[C@H](Cc2ccccc2)NC(=O)[C@@H](NC(=O)CNC(=O)[C@H](CCCCN)NC(=O)[C@H](CO)NC(=O)[C@H](CC(C)C)NC(=O)CN)CSSC[C@@H](C(=O)O)NC(=O)CNC(=O)[C@H](CC(C)C)NC(=O)CNC(=O)[C@H](CO)NC(=O)[C@H](CCSC)NC(=O)[C@H](CO)NC(=O)CNC1=O` and report it.
1020

###

Target: NEP (Rattus norvegicus)
Construct: male SD strain rats of 7 weeks age (Nippon Charles River; body weight: ca. 250 g) were used; from tissue; host or cells: whole animal: male SD rats (Nippon Charles River), in vivo
Sequence (P07861 whole entry): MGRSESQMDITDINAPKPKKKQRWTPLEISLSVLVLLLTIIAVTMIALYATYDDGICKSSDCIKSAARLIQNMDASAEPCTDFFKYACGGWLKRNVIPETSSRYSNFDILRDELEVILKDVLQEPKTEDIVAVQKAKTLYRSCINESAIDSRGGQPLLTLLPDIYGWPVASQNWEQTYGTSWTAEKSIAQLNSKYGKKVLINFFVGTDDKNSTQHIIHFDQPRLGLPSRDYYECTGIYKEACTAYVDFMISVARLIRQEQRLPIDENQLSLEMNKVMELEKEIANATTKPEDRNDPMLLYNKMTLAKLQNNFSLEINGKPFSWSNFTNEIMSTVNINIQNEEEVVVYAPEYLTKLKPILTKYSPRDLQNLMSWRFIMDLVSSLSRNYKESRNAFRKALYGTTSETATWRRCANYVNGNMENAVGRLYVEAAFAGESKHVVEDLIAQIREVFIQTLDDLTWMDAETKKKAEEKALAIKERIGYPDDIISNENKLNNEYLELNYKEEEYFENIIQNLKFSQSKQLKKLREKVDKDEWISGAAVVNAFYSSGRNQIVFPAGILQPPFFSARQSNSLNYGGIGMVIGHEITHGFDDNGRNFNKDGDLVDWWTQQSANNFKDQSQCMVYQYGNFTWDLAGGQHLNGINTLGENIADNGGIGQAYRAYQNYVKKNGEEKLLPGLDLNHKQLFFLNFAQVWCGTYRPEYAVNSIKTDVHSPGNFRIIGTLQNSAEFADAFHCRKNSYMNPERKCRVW
Assay: NEP resistance in vivo: influence of NEP inhibitor on pharmacokinetic parameters after intravenous administration
Conditions: male, SD, rat, in vivo, iv, 0.02 mg/kg, NEP Inhibitor (+), intravenous 0.02 mg/kg, male rats, N = 3; read-out: AUC0→∞ (converted)
TEST_READOUT: AUC(0-inf) (ng·h/mL)
Numbers only here, please. The scale is ng·h/mL.

State the measured AUC(0-inf) (NEP (Rattus norvegicus)) of CC[C@H](C)[C@@H]1NC(=O)[C@H](CCCNC(=N)N)NC(=O)[C@H](CC(=O)O)NC(=O)[C@H](CC(C)C)NC(=O)[C@H](CCCCN)NC(=O)[C@H](CC(C)C)NC(=O)CNC(=O)[C@H](Cc2ccccc2)NC(=O)[C@@H](NC(=O)CNC(=O)[C@H](CCCCN)NC(=O)[C@H](CO)NC(=O)[C@H](CC(C)C)NC(=O)CN)CSSC[C@@H](C(=O)O)NC(=O)CNC(=O)[C@H](CC(C)C)NC(=O)CNC(=O)[C@H](CO)NC(=O)[C@H](CCSC)NC(=O)[C@H](CO)NC(=O)CNC1=O [Native CNP-22]
12.6

###

Assay: CNP immunoreactivity concentration in plasma after administration to rats (competitive RIA), pharmacokinetic parameters (Example 2)
Assay type: in vivo, rat
Conditions: rat, plasma; intravenous, 0.1 mg/kg, male rats, N = 3, mean ± SD
TEST_READOUT: AUC(0-inf)
Remember to quote the unit after the number.

Report AUC(0-inf), nothing else, for this compound: CC[C@H](C)[C@@H]1NC(=O)[C@H](CCCNC(=N)N)NC(=O)[C@H](CC(=O)O)NC(=O)[C@H](CC(C)C)NC(=O)[C@H](CCCCN)NC(=O)[C@H](CC(C)C)NC(=O)CNC(=O)[C@H](Cc2ccccc2)NC(=O)[C@@H](NC(=O)CNC(=O)[C@H](CCCCN)NC(=O)[C@H](CO)NC(=O)[C@H](CC(C)C)NC(=O)CN)CSSC[C@@H](C(=O)O)NC(=O)CNC(=O)[C@H](CC(C)C)NC(=O)CNC(=O)[C@H](CO)NC(=O)[C@H](CCSC)NC(=O)[C@H](CO)NC(=O)CNC1=O [Native CNP-22]
25.6 ng·h/mL

###

Experiment: CNP immunoreactivity concentration in plasma, half-life after intravenous administration (Example 9)
Conditions: male, SD, rat, in vivo, 20 nmol/kg
TEST_READOUT: half-life (min)
Note: unit min is implicit; provide only the numeric part.

Name the recorded half-life of the item `CC[C@H](C)[C@@H]1NC(=O)[C@H](CCCNC(=N)N)NC(=O)[C@H](CC(=O)O)NC(=O)[C@H](CC(C)C)NC(=O)[C@H](CCCCN)NC(=O)[C@H](CC(C)C)NC(=O)CNC(=O)[C@H](Cc2ccccc2)NC(=O)[C@@H](NC(=O)CNC(=O)[C@H](CCCCN)NC(=O)[C@H](CO)NC(=O)[C@H](CC(C)C)NC(=O)CN)CSSC[C@@H](C(=O)O)NC(=O)CNC(=O)[C@H](CC(C)C)NC(=O)CNC(=O)[C@H](CO)NC(=O)[C@H](CCSC)NC(=O)[C@H](CO)NC(=O)CNC1=O` in your answer.
1.6

###

Experiment: CNP immunoreactivity concentration in plasma after administration to rats (competitive RIA), pharmacokinetic parameters (Example 2)
Format: in vivo, rat
Conditions: rat, plasma, sc; subcutaneous, 0.1 mg/kg, male rats, N = 3, mean ± SD; read-out: T½
TEST_READOUT: half-life (min)
Express your answer in min, writing the number without its unit.

Determine its reported half-life: `CC[C@H](C)[C@@H]1NC(=O)[C@H](CCCNC(=N)N)NC(=O)[C@H](CC(=O)O)NC(=O)[C@H](CC(C)C)NC(=O)[C@H](CCCCN)NC(=O)[C@H](CC(C)C)NC(=O)CNC(=O)[C@H](Cc2ccccc2)NC(=O)[C@@H](NC(=O)CNC(=O)[C@H](CCCCN)NC(=O)[C@H](CO)NC(=O)[C@H](CC(C)C)NC(=O)CN)CSSC[C@@H](C(=O)O)NC(=O)CNC(=O)[C@H](CC(C)C)NC(=O)CNC(=O)[C@H](CO)NC(=O)[C@H](CCSC)NC(=O)[C@H](CO)NC(=O)CNC1=O`
7.8

###

Biological target: NEP (Rattus norvegicus)
Construct: male SD strain rats of 7 weeks age (Nippon Charles River; body weight: ca. 250 g) were used; from tissue; host or cells: whole animal: male SD rats (Nippon Charles River), in vivo
Test: NEP resistance in vivo: influence of NEP inhibitor on pharmacokinetic parameters after intravenous administration
Conditions: male, SD, rat, in vivo, iv, 0.02 mg/kg, NEP Inhibitor (−), intravenous 0.02 mg/kg, male rats, N = 3; read-out: C0
TEST_READOUT: C0 (ng/mL)
Express your answer in ng/mL, writing the number without its unit.

Please give the documented C0 of `CC[C@H](C)[C@@H]1NC(=O)[C@H](CCCNC(=N)N)NC(=O)[C@H](CC(=O)O)NC(=O)[C@H](CC(C)C)NC(=O)[C@H](CCCCN)NC(=O)[C@H](CC(C)C)NC(=O)CNC(=O)[C@H](Cc2ccccc2)NC(=O)[C@@H](NC(=O)CNC(=O)[C@H](CCCCN)NC(=O)[C@H](CO)NC(=O)[C@H](CC(C)C)NC(=O)CN)CSSC[C@@H](C(=O)O)NC(=O)CNC(=O)[C@H](CC(C)C)NC(=O)CNC(=O)[C@H](CO)NC(=O)[C@H](CCSC)NC(=O)[C@H](CO)NC(=O)CNC1=O`
145
